Measured Kd of individual entries
# Target System: human GIP receptor (bioGIPR) (Homo sapiens, UniProt P48546)
# Construct: Biotinylate extracellular of the human GIP receptor (bioGIPR, Proteros biostructures GmbH, lot #02/2b); purchased Proteros biostructures GmbH lot #02/2b
# Sequence (P48546 22-138 limits assumed): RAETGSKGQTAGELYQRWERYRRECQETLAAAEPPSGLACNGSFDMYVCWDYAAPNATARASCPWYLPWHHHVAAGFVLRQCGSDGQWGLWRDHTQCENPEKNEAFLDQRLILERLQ
# Method Notes: Surface plasmon resonance (SPR) based binding assay
# Experimental Parameters: SPR, Single Cycle Kinetic mode, 25° C., 1:1 Langmuir binding model; read-out: pKD Category (converted)
*1 amine or outer side, *2 acyl side, *3 side chain or, on linkers, in order; H or OH if unused. Where a SMILES comes first, the peptide text is derived from it. Bridges are numbered along the chain shown (N, C = ends). [ ]: non-standard residue; d: D form. The star is where a group is joined. X3 = O=C(O)CN1CCN(CC(=O)O)CCN(CC(=O)NCCCOCCOCCOCCCN*)CCN(CC(=O)O)CC1; X8 = O=C(O)CN1CCN(CC(=O)O)CCN(CC(=O)N2CCN(*)CC2)CCN(CC(=O)O)CC1; DOTA = O=C(O)CN1CCN(CC(=O)O)CCN(CC(=O)*)CCN(CC(=O)O)CC1; Trp(5-Cl) = N[C@@H](Cc1c[nH]c2ccc(Cl)cc12)C(=O)O; Pyridine(2,6-diCH2) = c1cc(C[*:1])nc(C[*:2])c1; Pro(4S-NH2) = N[C@@H]1CN[C@H](C(=O)O)C1; X6 = c1cc(CSCCN[*:2])nc(C[*:1])c1; X7 = c1cc(CSCCN[*:2])cc(C[*:1])c1; Hyp = O=C(O)[C@@H]1C[C@@H](O)CN1; X1 = O=C(CN1CCC(N[*:1])CC1)[*:2]; Suc = O=C(CCC(=O)[*:2])[*:1]; Api = NC1(C(=O)O)CCNCC1; Thp = NC1(C(=O)O)CCOCC1; Aib = CC(C)(N)C(=O)O

Param readout = Kd; param system = human GIP receptor (bioGIPR) (Homo sapiens, UniProt P48546); param query = CC[C@H](C)[C@@H]1NC(=O)[C@H](CC(C)C)NC(=O)C2(CCOCC2)NC(=O)[C@@H](NC(=O)[C@@H](CC(C)C)NC(=O)[C@H](CCC(=O)O)NC(=O)[C@@H]2C[C@@H](O)CN2C(=O)[C@H](Cc2c[nH]c3ccc(Cl)cc23)NC(=O)[C@H](Cc2c[nH]c3ccccc23)NC(=O)CCC(=O)O)CSCc2cccc(n2)CSC[C@@H](C(=O)N2CCN(C(=O)CN3CCN(CC(=O)O)CCN(CC(=O)O)CCN(CC(=O)O)CC3)CC2)NC1=O [GIP-118] (Suc-W[Trp(5-Cl)][Hyp]E[dL]C[Thp]LIC-X8; linker 6-10 via Pyridine(2,6-diCH2)) ; response: value
< 1 nM

Param readout = Kd; param system = human GIP receptor (bioGIPR) (Homo sapiens, UniProt P48546); param query = CC[C@H](C)[C@@H]1NC(=O)[C@H](CC(C)C)NC(=O)C2(CCOCC2)NC(=O)[C@@H](NC(=O)[C@@H](CC(C)C)NC(=O)[C@H](CCC(=O)O)NC(=O)[C@@H]2C[C@@H](O)CN2C(=O)[C@H](Cc2c[nH]c3ccc(Cl)cc23)NC(=O)[C@H](Cc2c[nH]c3ccccc23)NC(=O)[C@H](CC(=O)O)NC(=O)CN2CCC(NC(=O)CN3CCN(CC(=O)O)CCN(CC(=O)O)CCN(CC(=O)O)CC3)CC2)CSCc2cccc(n2)CSCCNC1=O [GIP-103] ({DOTA}-[X1]DW[Trp(5-Cl)][Hyp]E[dL]C[Thp]LI; linker 8-C via X6) ; response: value
< 1 nM

Param readout = Kd; param system = human GIP receptor (bioGIPR) (Homo sapiens, UniProt P48546); param query = "CC[C@H](C)[C@@H]1NC(=O)[C@H](CC(C)C)NC(=O)C2(CCNCC2)NC(=O)[C@@H](NC(=O)[C@@H](CC(C)C)NC(=O)[C@H](CCC(=O)O)NC(=O)[C@@H]2C[C@@H](N)CN2C(=O)[C@H](Cc2c[nH]c3ccc(Cl)cc23)NC(=O)[C@H](Cc2c[nH]c3ccccc23)NC(=O)[C@H](CC(=O)O)NC(=O)CCC(=O)NCCCOCCOCCOCCCNC(=O)CN2CCN(CC(=O)O)CCN(CC(=O)O)CCN(CC(=O)O)CC2)CNCc2cccc(n2)CSCCNC1=O" ; response: value
< 1 nM

Param readout = Kd; param system = human GIP receptor (bioGIPR) (Homo sapiens, UniProt P48546); param query = CC[C@H](C)[C@@H]1NC(=O)[C@H](CC(C)C)NC(=O)C(C)(C)NC(=O)[C@@H](NC(=O)[C@@H](CC(C)C)NC(=O)[C@H](CCC(=O)O)NC(=O)[C@@H]2C[C@H](N)CN2C(=O)[C@H](Cc2c[nH]c3ccc(Cl)cc23)NC(=O)[C@H](Cc2c[nH]c3ccccc23)NC(=O)[C@H](CC(=O)O)NC(=O)CCC(=O)NCCCOCCOCCOCCCNC(=O)CN2CCN(CC(=O)O)CCN(CC(=O)O)CCN(CC(=O)O)CC2)CSCc2cccc(c2)CSCCNC1=O [GIP-096] ({X3-Suc}-DW[Trp(5-Cl)][Pro(4S-NH2)]E[dL]C[Aib]LI; linker 7-C via X7) ; response: value
< 1 nM

Param readout = Kd; param system = human GIP receptor (bioGIPR) (Homo sapiens, UniProt P48546); param query = CC[C@H](C)[C@@H]1NC(=O)[C@H](CC(C)C)NC(=O)C2(CCN(C(C)=O)CC2)NC(=O)[C@@H](NC(=O)[C@@H](CC(C)C)NC(=O)[C@H](CCC(=O)O)NC(=O)[C@@H]2CCCN2C(=O)[C@H](Cc2c[nH]c3ccc(Cl)cc23)NC(=O)[C@H](Cc2c[nH]c3ccccc23)NC(=O)[C@H](CC(=O)O)NC(=O)CCC(=O)NCCCOCCOCCOCCCNC(=O)CN2CCN(CC(=O)O)CCN(CC(=O)O)CCN(CC(=O)O)CC2)CSCc2cccc(c2)CSCCNC1=O [GIP-097] ({X3-Suc}-DW[Trp(5-Cl)]PE[dL]C[Api](Ac)LI; linker 7-C via X7) ; response: value
< 1 nM
